- measurement.target: δ opioid receptors (MVD) (Mus musculus, UniProt P32300)
- Construct: from tissue; host or cells: mouse (ICR) isolated vas deferens
- Sequence (P32300 whole entry): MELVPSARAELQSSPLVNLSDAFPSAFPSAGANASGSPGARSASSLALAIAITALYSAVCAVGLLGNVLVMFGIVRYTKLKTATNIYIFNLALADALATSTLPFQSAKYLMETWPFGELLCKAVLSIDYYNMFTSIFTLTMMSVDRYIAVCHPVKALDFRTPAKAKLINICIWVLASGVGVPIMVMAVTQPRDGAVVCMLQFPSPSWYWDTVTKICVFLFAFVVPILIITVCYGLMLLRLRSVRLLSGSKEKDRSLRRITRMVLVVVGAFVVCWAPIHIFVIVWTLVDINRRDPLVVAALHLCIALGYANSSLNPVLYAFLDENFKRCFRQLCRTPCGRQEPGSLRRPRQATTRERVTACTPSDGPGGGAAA
- method.notes: Mouse isolated vas deferens (MVD) assay, opioid agonist
Peptide text beside a SMILES is read from it.
IC50 listing for selected compounds.
quantity: IC50

compound | measurement.target | quantity | result
C[C@@H](NC(=O)[C@H](Cc1ccccc1)NC(=O)CNC(=O)[C@@H](C)NC(=O)[C@@H](N)Cc1ccc(O)cc1)C(=O)N[C@@H](Cc1c[nH]c2ccccc12)C(=O)OCc1cc(C(F)(F)F)cc(C(F)(F)F)c1 [NP40] (HELM PEPTIDE1{Y.[dA].G.F.[dA].W.[FC(F)(F)c1cc(CO[*:1])cc(C(F)(F)F)c1]}$$$$V2.0; N-terminus assumed) | δ opioid receptors (MVD) (Mus musculus, UniProt P32300) | IC50 | 58 nM
CSCC[C@H](NC(=O)[C@H](Cc1ccccc1)NC(=O)CNC(=O)[C@@H](C)NC(=O)[C@@H](N)Cc1ccc(O)cc1)C(=O)N1CCC[C@H]1C(=O)N[C@@H](CC(C)C)C(=O)N[C@@H](Cc1c[nH]c2ccccc12)C(=O)OCc1ccccc1 | δ opioid receptors (MVD) (Mus musculus, UniProt P32300) | IC50 | 7.62 nM

====

- measurement.target: human NK1 receptor (hNK1) (Homo sapiens)
- Construct: expressed in transfected cells
- method.notes: Radioligand competition binding, [3H]-Substance P, hNK1
- run.parameters: read-out: Ki, hNK1
pKi: −log10 of the molar value.
quantity: pKi

molecule | measurement.target | quantity | numeric.value
CC(C)C[C@H](NC(=O)[C@@H]1CCCN1C(=O)[C@H](Cc1ccccc1)NC(=O)CNC(=O)[C@@H](C)NC(=O)[C@@H](N)Cc1ccc(O)cc1)C(=O)N[C@@H](Cc1c[nH]c2ccccc12)C(=O)OCc1ccccc1 [TY011, H-Tyr-DAla-Gly-Phe-Pro-Leu-Trp-O-Bzl] | human NK1 receptor (hNK1) (Homo sapiens) | pKi | 7.00

====

- measurement.target: rat NK1 (rNK1) receptor (Rattus norvegicus)
- Construct: expressed in transfected cells; host or cells: CHO (rNK-1/CHO cell line from Dr. James Krause)
- Sequence (P14600 whole entry): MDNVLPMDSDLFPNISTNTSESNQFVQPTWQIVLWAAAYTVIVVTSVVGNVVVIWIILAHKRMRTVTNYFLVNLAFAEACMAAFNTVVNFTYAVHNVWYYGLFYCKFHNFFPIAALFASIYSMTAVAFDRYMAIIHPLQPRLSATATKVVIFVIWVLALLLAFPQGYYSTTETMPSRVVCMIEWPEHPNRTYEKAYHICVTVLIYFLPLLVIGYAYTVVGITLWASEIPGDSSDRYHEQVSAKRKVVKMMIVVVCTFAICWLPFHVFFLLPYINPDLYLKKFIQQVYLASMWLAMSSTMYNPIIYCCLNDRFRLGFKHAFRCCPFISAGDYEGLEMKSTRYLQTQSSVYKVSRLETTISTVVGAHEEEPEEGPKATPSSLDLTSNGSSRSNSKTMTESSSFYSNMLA
- method.notes: Radioligand competition binding, [3H]substance P, rNK1/CHO membranes
- run.parameters: LogIC50, rNK1, [3H]Substance P, Table 20; logarithm of IC50 (negative); CHO cell membranes
Peptide text beside a SMILES is read from it.
quantity: IC50

compound | result
CCCC[C@@H]1NC(=O)[C@H](Cc2ccccc2)NC(=O)CNC(=O)[C@H](NC(=O)[C@@H](N)Cc2ccc(O)cc2)CSSC[C@H](C(=O)N[C@@H](Cc2c[nH]c3ccccc23)C(=O)NCc2cc(C(F)(F)F)cc(C(F)(F)F)c2)NC(=O)[C@@H]2CCCN2C1=O [TY038, [D-Cys^2, D-Cys^7]TY027] (HELM PEPTIDE1{Y.[dC].G.F.[Nle].P.[dC].W.[FC(F)(F)c1cc(CN[*:1])cc(C(F)(F)F)c1]}$PEPTIDE1,PEPTIDE1,2:R3-7:R3$$$V2.0; N-terminus assumed) | 20 nM
CC(C)C[C@H](NC(=O)[C@@H]1CCCN1C(=O)[C@H]1CSSC[C@@H](NC(=O)[C@@H](N)Cc2ccc(O)cc2)C(=O)NCC(=O)N[C@@H](Cc2ccccc2)C(=O)N1)C(=O)N[C@@H](Cc1c[nH]c2ccccc12)C(=O)NCc1cc(C(F)(F)F)cc(C(F)(F)F)c1 [TY037, [D-Cys^2, D-Cys^5]TY027] | 126 nM
CC(C)C[C@H](NC(=O)[C@@H]1CCCN1C(=O)[C@@H]1CSSC[C@@H](NC(=O)[C@@H](N)Cc2ccc(O)cc2)C(=O)NCC(=O)N[C@@H](Cc2ccccc2)C(=O)N1)C(=O)N[C@@H](Cc1c[nH]c2ccccc12)C(=O)NCc1cc(C(F)(F)F)cc(C(F)(F)F)c1 | 1580 nM

====

- measurement.target: rat μ opioid receptors (rMOR) (Rattus norvegicus, UniProt P33535)
- Construct: expressed in transfected cells; host or cells: HN9.10 neuroblastoma cell line, pCDNA3, neomycin-selected clones
- Sequence (P33535 whole entry): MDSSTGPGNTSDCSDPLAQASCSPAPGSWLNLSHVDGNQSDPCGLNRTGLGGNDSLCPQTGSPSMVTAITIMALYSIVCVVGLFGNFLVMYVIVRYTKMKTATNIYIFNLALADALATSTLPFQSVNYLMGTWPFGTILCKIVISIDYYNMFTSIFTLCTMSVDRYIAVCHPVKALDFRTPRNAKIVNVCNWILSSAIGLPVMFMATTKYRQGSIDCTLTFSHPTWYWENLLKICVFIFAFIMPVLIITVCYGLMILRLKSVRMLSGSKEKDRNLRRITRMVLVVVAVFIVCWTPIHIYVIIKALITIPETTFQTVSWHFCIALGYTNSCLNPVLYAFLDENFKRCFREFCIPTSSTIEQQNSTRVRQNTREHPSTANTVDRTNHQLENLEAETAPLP
- method.notes: biochemical
- Format: biochemical
- run.parameters: read-out: GTP binding rMOR Emax
quantity: Emax (%)

molecule | scale.unit | numeric.value
CCCC[C@H](NC(=O)[C@H](Cc1ccccc1)NC(=O)CNC(=O)[C@@H](C)NC(=O)[C@@H](N)Cc1ccc(O)cc1)C(=O)N[C@@H](COC1O[C@H](CO)[C@@H](O)[C@H](O)[C@H]1O)C(=O)N[C@@H](CC(C)C)C(=O)N[C@@H](Cc1c[nH]c2ccccc12)C(=O)NCc1cc(C(F)(F)F)cc(C(F)(F)F)c1 (stereo partly shown) | % | 85

====

- measurement.target: human NK1 receptor (hNK1) (Homo sapiens, UniProt P25103)
- Construct: expressed in transfected cells
- Sequence (P25103 whole entry): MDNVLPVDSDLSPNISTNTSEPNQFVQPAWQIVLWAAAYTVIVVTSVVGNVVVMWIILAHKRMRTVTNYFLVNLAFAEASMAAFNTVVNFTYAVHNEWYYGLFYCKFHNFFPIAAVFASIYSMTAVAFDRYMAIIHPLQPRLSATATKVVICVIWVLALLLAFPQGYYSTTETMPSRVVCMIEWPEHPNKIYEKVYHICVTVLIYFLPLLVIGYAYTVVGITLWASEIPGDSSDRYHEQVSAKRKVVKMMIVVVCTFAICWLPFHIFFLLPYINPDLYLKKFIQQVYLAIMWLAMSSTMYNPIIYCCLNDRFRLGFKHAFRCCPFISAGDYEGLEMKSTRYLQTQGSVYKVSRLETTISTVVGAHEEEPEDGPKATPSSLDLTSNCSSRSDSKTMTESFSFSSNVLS
- method.notes: Radioligand competition binding, [3H]-Substance P, hNK1
pKi: −log10 of the molar value. Peptide text beside a SMILES is read from it.
Cut-off 10 on pKi, inclusive. At or above means criterion met; below means criterion not met.

compound | classification
C[C@@H](NC(=O)[C@@H](N)Cc1ccc(O)cc1)C(=O)NCC(=O)N[C@@H](Cc1ccccc1)C(=O)NC(C)(C)C(=O)N[C@@H](Cc1c[nH]c2ccccc12)C(=O)OCc1cc(C(F)(F)F)cc(C(F)(F)F)c1 [NP41] (HELM PEPTIDE1{Y.[dA].G.F.[Aib].W.[FC(F)(F)c1cc(CO[*:1])cc(C(F)(F)F)c1]}$$$$V2.0; N-terminus assumed) | criterion met
CSCC[C@H](NC(=O)[C@H](Cc1ccccc1)NC(=O)CNC(=O)[C@@H](C)NC(=O)[C@@H](N)Cc1c(C)cc(O)cc1C)C(=O)N1CCC[C@H]1C(=O)N[C@@H](CC(C)C)C(=O)N[C@@H](Cc1c[nH]c2ccccc12)C(=O)OCc1cc(C(F)(F)F)cc(C(F)(F)F)c1 | criterion not met
CC(C)C[C@H](NC(=O)[C@@H]1CCCN1C(=O)[C@H]1NC(=O)[C@H](Cc2ccccc2)NC(=O)CNC(=O)[C@H](NC(=O)[C@@H](N)Cc2ccc(O)cc2)C(C)(C)SSC1(C)C)C(=O)N[C@@H](Cc1c[nH]c2ccccc12)C(=O)NCc1cc(C(F)(F)F)cc(C(F)(F)F)c1 | criterion met
CC(C)C[C@H](NC(=O)[C@@H]1CCCN1C(=O)[C@H](Cc1ccccc1)NC(=O)CNC(=O)[C@@H](C)NC(=O)[C@@H](N)Cc1ccc(O)cc1)C(=O)N[C@@H](Cc1c[nH]c2ccccc12)C(=O)N(C)Cc1cc(C(F)(F)F)cc(C(F)(F)F)c1 | criterion not met
C[C@@H](NC(=O)[C@@H](N)Cc1ccc(O)cc1)C(=O)N[C@@H](Cc1c[nH]c2ccccc12)C(=O)OCc1cc(C(F)(F)F)cc(C(F)(F)F)c1 | criterion met
C[C@@H](NC(=O)[C@@H](N)Cc1ccc(O)cc1)C(=O)NCC(=O)N[C@@H](Cc1ccc(F)cc1)C(=O)OCc1cc(C(F)(F)F)cc(C(F)(F)F)c1 | criterion not met
CC(C)C[C@H](NC(=O)[C@@H]1CCCN1C(=O)CNC(=O)[C@H](Cc1ccccc1)NC(=O)CNC(=O)[C@@H](C)NC(=O)[C@@H](N)Cc1ccc(O)cc1)C(=O)N[C@@H](Cc1c[nH]c2ccccc12)C(=O)OCc1cc(C(F)(F)F)cc(C(F)(F)F)c1 [TY006] (HELM PEPTIDE1{Y.[dA].G.F.G.P.L.W.[FC(F)(F)c1cc(CO[*:1])cc(C(F)(F)F)c1]}$$$$V2.0) | criterion met

====

- method.notes: In vitro stability in rat plasma at 37° C.
- Assay type: in vitro ADME
- run.parameters: rat, rat plasma, read-out: half life (T1/2) in rat plasma (converted)
Peptide text beside a SMILES is read from it.
half-life at 50 μg/mL listing for selected compounds.
quantity: half-life at 50 μg/mL

compound | result
CC(C)C[C@H](NC(=O)[C@@H]1CCCN1C(=O)[C@@H]1CSSC[C@@H](NC(=O)[C@@H](N)Cc2ccc(O)cc2)C(=O)NCC(=O)N[C@@H](Cc2ccccc2)C(=O)N1)C(=O)N[C@@H](Cc1c[nH]c2ccccc12)C(=O)NCc1cc(C(F)(F)F)cc(C(F)(F)F)c1 [TY039] | > 6 h
CCCC[C@@H]1NC(=O)[C@H](Cc2ccccc2)NC(=O)CNC(=O)[C@H](NC(=O)[C@@H](N)Cc2ccc(O)cc2)CSSC[C@H](C(=O)N[C@@H](Cc2c[nH]c3ccccc23)C(=O)NCc2cc(C(F)(F)F)cc(C(F)(F)F)c2)NC(=O)[C@@H]2CCCN2C1=O [TY038, [D-Cys^2, D-Cys^7]TY027] (HELM PEPTIDE1{Y.[dC].G.F.[Nle].P.[dC].W.[FC(F)(F)c1cc(CN[*:1])cc(C(F)(F)F)c1]}$PEPTIDE1,PEPTIDE1,2:R3-7:R3$$$V2.0; N-terminus assumed) | > 6 h
CC(C)C[C@H](NC(=O)[C@@H]1CCCN1C(=O)[C@H]1CSSC[C@@H](NC(=O)[C@@H](N)Cc2ccc(O)cc2)C(=O)NCC(=O)N[C@@H](Cc2ccccc2)C(=O)N1)C(=O)N[C@@H](Cc1c[nH]c2ccccc12)C(=O)NCc1cc(C(F)(F)F)cc(C(F)(F)F)c1 [TY037, [D-Cys^2, D-Cys^5]TY027] | 3.7 h
CCCC[C@@H]1NC(=O)[C@H](Cc2ccccc2)NC(=O)CNC(=O)[C@H](NC(=O)[C@@H](N)Cc2ccc(O)cc2)CSSC[C@@H](C(=O)N[C@@H](Cc2c[nH]c3ccccc23)C(=O)NCc2cc(C(F)(F)F)cc(C(F)(F)F)c2)NC(=O)[C@@H]2CCCN2C1=O [TY035, [D-Cys^2, Cys^7]TY027] (HELM PEPTIDE1{Y.[dC].G.F.[Nle].P.C.W.[FC(F)(F)c1cc(CN[*:1])cc(C(F)(F)F)c1]}$PEPTIDE1,PEPTIDE1,2:R3-7:R3$$$V2.0; N-terminus assumed) | > 6 h
